Biological target: PI3Kβ (Homo sapiens)
Construct: endogenous in cells; host or cells: PC-3 (ATCC #CRL-1435)
Sequence (P42338 whole entry): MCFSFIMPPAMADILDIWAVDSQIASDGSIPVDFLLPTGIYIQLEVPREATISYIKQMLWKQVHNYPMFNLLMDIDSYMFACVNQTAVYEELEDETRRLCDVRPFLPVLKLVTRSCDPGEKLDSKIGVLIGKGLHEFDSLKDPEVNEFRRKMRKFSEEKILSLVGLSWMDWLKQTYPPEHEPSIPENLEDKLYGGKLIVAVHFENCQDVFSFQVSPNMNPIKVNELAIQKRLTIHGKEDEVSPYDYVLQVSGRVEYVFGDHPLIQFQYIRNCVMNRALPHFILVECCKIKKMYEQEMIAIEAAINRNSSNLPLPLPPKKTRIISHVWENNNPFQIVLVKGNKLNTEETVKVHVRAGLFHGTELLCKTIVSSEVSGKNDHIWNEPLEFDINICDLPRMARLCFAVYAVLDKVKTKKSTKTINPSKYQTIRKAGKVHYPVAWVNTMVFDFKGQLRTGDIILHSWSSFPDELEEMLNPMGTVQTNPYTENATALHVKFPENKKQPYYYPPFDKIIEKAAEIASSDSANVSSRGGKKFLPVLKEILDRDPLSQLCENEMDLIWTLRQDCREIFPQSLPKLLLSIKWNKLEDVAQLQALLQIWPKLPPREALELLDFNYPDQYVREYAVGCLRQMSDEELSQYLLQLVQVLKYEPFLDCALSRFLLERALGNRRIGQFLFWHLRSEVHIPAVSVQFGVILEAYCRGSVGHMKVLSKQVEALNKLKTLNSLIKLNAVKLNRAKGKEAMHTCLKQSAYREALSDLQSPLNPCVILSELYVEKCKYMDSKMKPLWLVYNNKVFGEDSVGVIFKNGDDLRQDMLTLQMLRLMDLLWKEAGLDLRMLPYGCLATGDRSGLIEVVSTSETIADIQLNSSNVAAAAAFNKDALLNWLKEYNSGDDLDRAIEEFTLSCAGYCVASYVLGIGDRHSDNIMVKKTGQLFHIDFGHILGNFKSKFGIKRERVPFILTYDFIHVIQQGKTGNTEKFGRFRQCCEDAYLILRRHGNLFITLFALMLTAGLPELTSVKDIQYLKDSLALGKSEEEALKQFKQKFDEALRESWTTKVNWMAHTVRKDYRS
Sequence (P27986 whole entry partner): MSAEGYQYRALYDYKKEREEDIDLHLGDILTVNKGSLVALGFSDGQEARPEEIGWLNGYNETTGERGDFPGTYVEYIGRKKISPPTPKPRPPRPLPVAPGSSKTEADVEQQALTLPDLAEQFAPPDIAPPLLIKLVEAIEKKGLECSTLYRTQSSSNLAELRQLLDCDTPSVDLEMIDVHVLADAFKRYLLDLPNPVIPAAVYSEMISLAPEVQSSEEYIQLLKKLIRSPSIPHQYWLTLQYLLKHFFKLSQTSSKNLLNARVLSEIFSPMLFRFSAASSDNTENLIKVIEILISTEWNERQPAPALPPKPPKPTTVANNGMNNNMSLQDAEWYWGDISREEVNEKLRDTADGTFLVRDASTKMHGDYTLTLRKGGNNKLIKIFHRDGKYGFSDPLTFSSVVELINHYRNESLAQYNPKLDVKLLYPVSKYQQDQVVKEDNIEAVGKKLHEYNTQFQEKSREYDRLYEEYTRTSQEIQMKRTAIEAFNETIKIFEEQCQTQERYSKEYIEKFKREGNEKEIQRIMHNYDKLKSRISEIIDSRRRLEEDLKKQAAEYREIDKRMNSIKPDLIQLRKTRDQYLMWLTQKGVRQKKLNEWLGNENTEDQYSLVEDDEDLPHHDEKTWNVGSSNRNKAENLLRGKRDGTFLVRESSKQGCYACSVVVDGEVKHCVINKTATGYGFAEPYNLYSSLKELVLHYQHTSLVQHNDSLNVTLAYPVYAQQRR
Experiment: ELISA assay for PI3Kβ: in-cell ELISA, phosphorylation of AKT (Ser473) in PC-3 cells
Format: cell-based
Conditions: ratio of cellular IC50 values, Table 2
reported-property: α/β ratio

>  <compound>
Cc1cc(-c2ccccc2CC(C)(C)Nc2nc(N3CCOCC3)nc(-n3c(C(F)F)nc4ccccc43)n2)ccn1

>  <α/β ratio>
C’

$$$$
>  <compound>
CC(C)(Cc1ccccc1F)Nc1nc(N2CCOCC2)nc(-n2c(C(F)F)nc3ccccc32)n1

>  <α/β ratio>
C’

$$$$
>  <compound>
CN1CCC(c2ccccc2CC(C)(C)Nc2nc(N3CCOCC3)nc(-n3c(C(F)F)nc4ccccc43)n2)CC1

>  <α/β ratio>
A’

$$$$
>  <compound>
CC(C)N1CCC(c2ccccc2CC(C)(C)Nc2nc(N3CCOCC3)nc(-n3c(C(F)F)nc4ccccc43)n2)CC1

>  <α/β ratio>
A’

$$$$
>  <compound>
CC(C)(Cc1ccccc1Cl)Nc1nc(N2CCOCC2)nc(-n2c(C(F)F)nc3ccccc32)n1

>  <α/β ratio>
B’

$$$$
>  <compound>
CC(C)(Cc1ccccc1C1CCNCC1)Nc1nc(N2CCOCC2)nc(-n2c(C(F)F)nc3ccccc32)n1

>  <α/β ratio>
A’

$$$$
>  <compound>
COc1cc(CC(C)(C)Nc2nc(N3CCOCC3)nc(-n3c(C(F)F)nc4ccccc43)n2)ccc1F

>  <α/β ratio>
B’

$$$$
>  <compound>
COc1cccc(-c2ccccc2CC(C)(C)Nc2nc(N3CCOCC3)nc(-n3c(C(F)F)nc4ccccc43)n2)c1

>  <α/β ratio>
A’

$$$$

Task: Note α/β ratio for the compound shown: CC(C)(Cc1ccccc1-c1cn[nH]c1)Nc1nc(N2CCOCC2)nc(-n2c(C(F)F)nc3ccccc32)n1
Result: A’

Task: Return the recorded α/β ratio value; entry: CC(C)(Cc1ccccc1C1CCNC1)Nc1nc(N2CCOCC2)nc(-n2c(C(F)F)nc3ccccc32)n1 (centres unmarked)
Result: A’

Task: Provide only the value of recorded α/β ratio for COc1ccc(-c2ccccc2CC(C)(C)Nc2nc(N3CCOCC3)nc(-n3c(C(F)F)nc4ccccc43)n2)cc1
Result: A’

Task: Note down α/β ratio recorded for CC(C)(Cc1ccccc1-c1ccccc1Cl)Nc1nc(N2CCOCC2)nc(-n2c(C(F)F)nc3ccccc32)n1
Result: A’

Task: Please report the measured α/β ratio for CN1CCN(c2cc(-c3ccccc3CC(C)(C)Nc3nc(N4CCOCC4)nc(-n4c(C(F)F)nc5ccccc54)n3)ccn2)CC1
Result: A’

* * *

Target: PI3K delta (Homo sapiens)
Construct: purchased Millipore, Billerica, MA, USA
Sequence (O00329 whole entry, species assumed): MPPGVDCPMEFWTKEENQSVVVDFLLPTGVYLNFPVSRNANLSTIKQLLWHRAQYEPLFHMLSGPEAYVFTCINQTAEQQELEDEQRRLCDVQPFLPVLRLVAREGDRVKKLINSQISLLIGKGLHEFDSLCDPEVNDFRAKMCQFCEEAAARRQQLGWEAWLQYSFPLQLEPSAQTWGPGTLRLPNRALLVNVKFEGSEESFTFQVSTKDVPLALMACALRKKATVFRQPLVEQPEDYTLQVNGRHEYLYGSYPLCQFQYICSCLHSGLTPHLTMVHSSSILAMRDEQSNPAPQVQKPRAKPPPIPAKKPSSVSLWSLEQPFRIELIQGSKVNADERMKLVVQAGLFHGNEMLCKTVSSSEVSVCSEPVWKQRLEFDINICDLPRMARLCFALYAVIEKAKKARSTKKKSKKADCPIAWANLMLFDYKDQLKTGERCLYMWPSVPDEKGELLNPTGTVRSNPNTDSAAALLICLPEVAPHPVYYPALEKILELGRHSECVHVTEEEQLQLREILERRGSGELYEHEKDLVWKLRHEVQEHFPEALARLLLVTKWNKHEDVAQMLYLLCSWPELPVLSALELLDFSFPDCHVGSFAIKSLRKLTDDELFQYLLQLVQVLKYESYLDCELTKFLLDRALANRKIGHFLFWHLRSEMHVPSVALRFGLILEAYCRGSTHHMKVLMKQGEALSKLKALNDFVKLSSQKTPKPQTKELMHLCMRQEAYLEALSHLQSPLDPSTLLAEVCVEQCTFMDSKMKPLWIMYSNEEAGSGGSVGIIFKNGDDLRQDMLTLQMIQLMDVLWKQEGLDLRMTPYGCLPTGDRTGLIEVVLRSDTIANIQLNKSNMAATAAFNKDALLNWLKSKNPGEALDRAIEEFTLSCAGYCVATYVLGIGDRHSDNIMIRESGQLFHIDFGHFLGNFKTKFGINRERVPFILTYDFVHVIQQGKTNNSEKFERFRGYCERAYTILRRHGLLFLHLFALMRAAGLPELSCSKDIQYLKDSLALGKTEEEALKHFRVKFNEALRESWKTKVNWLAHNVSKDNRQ
Sequence (P27986 whole entry partner, species assumed): as the sequence (P27986 whole entry partner) above
Experiment: Luciferase-based luminescence assay (KinaseGlo), PI3K delta enzymatic activity
Assay type: biochemical
Conditions: ratio of enzymatic IC50 against PI3Kα over IC50 against PI3Kδ

>  <compound>
CC(C)N1CCC(c2ccccc2CC(C)(C)Nc2nc(N3CCOCC3)nc(-n3c(C(F)F)nc4ccccc43)n2)CC1 [Compound A71]

>  <α/δ ratio>
A’

$$$$
>  <compound>
CN1CCC(c2ccccc2CC(C)(C)Nc2nc(N3CCOCC3)nc(-n3c(C(F)F)nc4ccccc43)n2)CC1 [Compound A35]

>  <α/δ ratio>
A’

$$$$
>  <compound>
COC(=O)[C@@H](Nc1nc(N2CCOCC2)nc(-n2c(C(F)F)nc3ccccc32)n1)c1ccccc1 [Compound A12]

>  <α/δ ratio>
D’

$$$$
>  <compound>
CC(C)(Nc1nc(N2CCOCC2)nc(-n2c(C(F)F)nc3ccccc32)n1)c1ccc(Cl)cc1 [Compound A8]

>  <α/δ ratio>
C’

$$$$
